stoichiometry N overview
Target: the molecule itself
Assay: SEC-MALS

>  <protein>
mouse pyridoxal kinase (mPDXK) V41W (enzyme, UniProt Q8K183 1-312, looked up) MEGECRVLSIQSHVVRGYVGNRAAMFPLQVLGFEVDAVNSWQFSNHTGYAHWKGQVLKSQELHELYEGLKVNDVNKYDYVLTGYTRDKSFLAMVVDIVRELKQQNSRLVYVCDPVMGDKWNGEGSMYVPQDLLPVYRDKVVPVADIITPNQFEAELLSGRKIHSQEEAFEVMDMLHCMGPDTVVITSSDLPSSQGSDYLIALGSQRMRKPDGSTVTQRIRMEMRKVEAVFVGTGDLFAAMLLAWTHKHPDNLKVACEKTVSAMQHVLQRTIRCAKAEAGEGQKPSPAQLELRMVQSKRDIEDPEIVVQATVL

>  <stoichiometry N>
2

$$$$
>  <protein>
mouse pyridoxal kinase (mPDXK), wild type (enzyme, UniProt Q8K183 1-312, looked up) MEGECRVLSIQSHVVRGYVGNRAAMFPLQVLGFEVDAVNSVQFSNHTGYAHWKGQVLKSQELHELYEGLKVNDVNKYDYVLTGYTRDKSFLAMVVDIVRELKQQNSRLVYVCDPVMGDKWNGEGSMYVPQDLLPVYRDKVVPVADIITPNQFEAELLSGRKIHSQEEAFEVMDMLHCMGPDTVVITSSDLPSSQGSDYLIALGSQRMRKPDGSTVTQRIRMEMRKVEAVFVGTGDLFAAMLLAWTHKHPDNLKVACEKTVSAMQHVLQRTIRCAKAEAGEGQKPSPAQLELRMVQSKRDIEDPEIVVQATVL

>  <stoichiometry N>
2

$$$$
>  <protein>
mouse pyridoxal kinase (mPDXK) R86W (enzyme, UniProt Q8K183 1-312, looked up) MEGECRVLSIQSHVVRGYVGNRAAMFPLQVLGFEVDAVNSVQFSNHTGYAHWKGQVLKSQELHELYEGLKVNDVNKYDYVLTGYTWDKSFLAMVVDIVRELKQQNSRLVYVCDPVMGDKWNGEGSMYVPQDLLPVYRDKVVPVADIITPNQFEAELLSGRKIHSQEEAFEVMDMLHCMGPDTVVITSSDLPSSQGSDYLIALGSQRMRKPDGSTVTQRIRMEMRKVEAVFVGTGDLFAAMLLAWTHKHPDNLKVACEKTVSAMQHVLQRTIRCAKAEAGEGQKPSPAQLELRMVQSKRDIEDPEIVVQATVL

>  <stoichiometry N>
2

$$$$
